- targetSystem: T1, human Trophoblast cell surface antigen 2 (TROP2) (human, UniProt P09758 27-274, limits assumed)
- T1 construct: Analyte in the SPR experiments and immunogen; also called human TROP2
- T1 sequence: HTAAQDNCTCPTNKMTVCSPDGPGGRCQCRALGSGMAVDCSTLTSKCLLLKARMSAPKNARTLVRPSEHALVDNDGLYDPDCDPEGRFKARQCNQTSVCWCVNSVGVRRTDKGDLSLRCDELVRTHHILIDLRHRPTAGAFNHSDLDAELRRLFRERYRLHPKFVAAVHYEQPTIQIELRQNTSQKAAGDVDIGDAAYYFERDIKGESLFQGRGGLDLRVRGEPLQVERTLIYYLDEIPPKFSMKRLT
- procedureText: SPR affinity ranking, human TROP2
Labelling: koff reported below 0.0004 s⁻¹ becomes yes (1); at or above becomes no (0).

HC2/LC1 (antibody, human IgG1, kappa, V domains shown, Humanized anti-TROP2 antibody) VH: QVQLVQSGAEVKKPGASVKVSCKASGYTFTDYSINWVRQAPGQGLEWMGVISTYYGDASYNQKFKGRVTMTRDTSTSTVYMELSSLRSEDTAVYYCARYGDGYNQFDYWGQGTLVTVSS VL: DIVMTQSPDSLAVSLGERATINCRVSESVDSYGNNFMHWYQQKPGQPPKLLIYRASNLESGVPDRFSGSGSGTDFTLTISSLQAEDVAVYYCQQSYEDPYTFGQGTKLEIKR = yes (1)
HC1/LC1 (antibody, human IgG1, kappa, V domains shown, Humanized anti-TROP2 antibody; also called DP002-HC1LC1) VH: QVQLVQSGAEVKKPGASVKVSCKASGYTFTDYSINWVRQAPGQGLEWMGVISTYYGDASYNQKFKGRVTMTTDTSTSTAYMELRSLRSDDTAVYYCARYGDGYNQFDYWGQGTMVTVSS VL: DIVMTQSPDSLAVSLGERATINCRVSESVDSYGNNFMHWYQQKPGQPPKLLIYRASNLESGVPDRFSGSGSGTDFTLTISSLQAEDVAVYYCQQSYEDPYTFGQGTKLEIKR = yes (1)
HC5/LC4 (antibody, human IgG1, kappa, V domains shown, Humanized anti-TROP2 antibody) VH: EVQLVQSGAEVKKPGESLKISCKGSGYTFTDYSINWVRQMPGKGLEWMGVISTYYGDASYNQKFKGQVTISADKSISTAYLQWSSLKASDTAMYYCARYGDGYNQFDYWGQGTLVTVSS VL: EIVLTQSPATLSLSPGERATLSCRVSESVDSYGNNFMHWYQQKPGQAPRLLIYRASNLESGIPARFSGSGSGTDFTLTISSLEPEDFAVYYCQQSYEDPYTFGGGTKVEIKR = yes (1)
HC4/LC2 (antibody, human IgG1, kappa, V domains shown, Humanized anti-TROP2 antibody) VH: QVQLVQSGAEVKKPGSSVKVSCKASGYTFTDYSINWVRQAPGQGLEWMGVISTYYGDASYNQKFKGRVTITADESTSTAYMELSSLRSEDTAVYYCARYGDGYNQFDYWGQGTLVTVSS VL: DVVMTQSPLSLPVTLGQPASISCRVSESVDSYGNNFMHWFQQRPGQSPRRLIYRASNLESGVPDRFSGSGSGTDFTLKISRVEAEDVGVYYCQQSYEDPYTFGGGTKVEIKR = no (0)
